Values from ChEMBL document CHEMBL3217454

measured_target: Human immunodeficiency virus type 1 integrase (Human immunodeficiency virus 1) (UniProt Q7ZJM1)
Sequence (Q7ZJM1 as listed by the source): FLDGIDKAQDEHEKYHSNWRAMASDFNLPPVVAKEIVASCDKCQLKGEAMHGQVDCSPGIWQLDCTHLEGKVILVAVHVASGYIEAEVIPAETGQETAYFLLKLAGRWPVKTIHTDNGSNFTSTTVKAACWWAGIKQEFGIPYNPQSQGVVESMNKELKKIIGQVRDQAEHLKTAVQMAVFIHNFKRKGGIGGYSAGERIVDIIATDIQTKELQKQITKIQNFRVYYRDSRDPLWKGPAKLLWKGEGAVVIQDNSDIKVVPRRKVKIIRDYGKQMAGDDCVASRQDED
experiment_description: Binding affinity to HIV-1 integrase measured after overnight incubation by chemiluminescence analysis relative to IN 118-128
Set-up: concentration or dose not given beside the values
Square brackets hold non-standard residues; d marks the D form. Peptide text beside a SMILES is read from it. NMeT = CN[C@H](C(=O)O)[C@@H](C)O
Please note: Activity exactly at 200% is Criterion not met. Only values below 200% get Criterion met.

Report whether reported Activity is lower than 200% (strictly) for `CC(C)[C@H](NC(=O)[C@@H](NC(=O)[C@@H](NC(=O)[C@@H](CO)NC(=O)[C@@H](NC(=O)[C@H](Cc1ccccc1)NC(=O)[C@H](CC(N)=O)NC(=O)[C@H](CO)NC(=O)CN)[C@@H](C)O)[C@@H](C)O)[C@@H](C)O)C(=O)N[C@@H](CCCCN)C(=O)N[C@@H](C)C(=O)O` Criterion met

For CC(C)[C@H](NC(=O)[C@@H](NC(=O)[C@@H](NC(=O)[C@H](CO)NC(=O)[C@@H](NC(=O)[C@H](Cc1ccccc1)NC(=O)[C@H](CC(N)=O)NC(=O)[C@@H](N)CO)[C@@H](C)O)[C@@H](C)O)[C@@H](C)O)C(=O)N[C@@H](CCCCN)C(=O)N[C@@H](C)C(=O)O (H-SNFTSTTVKA-OH) , is the recorded Activity below the cut-off of 200%? Criterion not met

Identify whether the compound CC(C)[C@H](NC(=O)[C@H](C)NC(=O)[C@@H](NC(=O)[C@H](CO)NC(=O)[C@@H](NC(=O)[C@H](Cc1ccccc1)NC(=O)[C@H](CC(N)=O)NC(=O)[C@H](CO)NC(=O)CN)[C@@H](C)O)[C@@H](C)O)C(=O)N[C@@H](CCCCN)C(=O)N[C@@H](C)C(=O)O (H-GSNFTSTAVKA-OH) records Activity below 200%. Criterion met

Hi there! Is Activity for C[C@H](NC(=O)[C@H](CCCCN)NC(=O)[C@H](C)NC(=O)[C@@H](NC(=O)[C@@H](NC(=O)[C@H](CO)NC(=O)[C@@H](NC(=O)[C@H](Cc1ccccc1)NC(=O)[C@H](CC(N)=O)NC(=O)[C@H](CO)NC(=O)CN)[C@@H](C)O)[C@@H](C)O)[C@@H](C)O)C(=O)O (H-GSNFTSTTAKA-OH) below 200%, do you know? Criterion met

I wonder whether CC(C)[C@H](NC(=O)[C@H]([C@@H](C)O)N(C)C(=O)[C@@H](NC(=O)[C@H](CO)NC(=O)[C@@H](NC(=O)[C@H](Cc1ccccc1)NC(=O)[C@H](CC(N)=O)NC(=O)[C@H](CO)NC(=O)CN)[C@@H](C)O)[C@@H](C)O)C(=O)N[C@@H](CCCCN)C(=O)N[C@@H](C)C(=O)O (H-GSNFTST[NMeT]VKA-OH) has Activity below 200%. Can you tell? Criterion not met

Is 200% strictly greater than the compound's reported Activity? compound: `CC(C)[C@H](NC(=O)[C@@H](NC(=O)[C@H](NC(=O)[C@H](CO)NC(=O)[C@@H](NC(=O)[C@H](Cc1ccccc1)NC(=O)[C@H](CC(N)=O)NC(=O)[C@H](CO)NC(=O)CN)[C@@H](C)O)[C@@H](C)O)[C@@H](C)O)C(=O)N[C@@H](CCCCN)C(=O)N[C@@H](C)C(=O)O` Criterion met

hey, is Activity for CC(C)[C@H](NC(=O)[C@@H](NC(=O)[C@@H](NC(=O)[C@H](CO)NC(=O)[C@@H](NC(=O)[C@H](Cc1ccccc1)NC(=O)[C@H](CC(N)=O)NC(=O)[C@H](CO)NC(=O)CN)[C@@H](C)O)[C@@H](C)O)[C@@H](C)O)C(=O)N[C@@H](CCCCN)C(=O)O (H-GSNFTSTTVK-OH) lower than 200% or not? Criterion not met
